- Experimental target: Receptor tyrosine-protein kinase erbB-2 (Homo sapiens, UniProt P04626)
- Sequence (P04626 whole entry): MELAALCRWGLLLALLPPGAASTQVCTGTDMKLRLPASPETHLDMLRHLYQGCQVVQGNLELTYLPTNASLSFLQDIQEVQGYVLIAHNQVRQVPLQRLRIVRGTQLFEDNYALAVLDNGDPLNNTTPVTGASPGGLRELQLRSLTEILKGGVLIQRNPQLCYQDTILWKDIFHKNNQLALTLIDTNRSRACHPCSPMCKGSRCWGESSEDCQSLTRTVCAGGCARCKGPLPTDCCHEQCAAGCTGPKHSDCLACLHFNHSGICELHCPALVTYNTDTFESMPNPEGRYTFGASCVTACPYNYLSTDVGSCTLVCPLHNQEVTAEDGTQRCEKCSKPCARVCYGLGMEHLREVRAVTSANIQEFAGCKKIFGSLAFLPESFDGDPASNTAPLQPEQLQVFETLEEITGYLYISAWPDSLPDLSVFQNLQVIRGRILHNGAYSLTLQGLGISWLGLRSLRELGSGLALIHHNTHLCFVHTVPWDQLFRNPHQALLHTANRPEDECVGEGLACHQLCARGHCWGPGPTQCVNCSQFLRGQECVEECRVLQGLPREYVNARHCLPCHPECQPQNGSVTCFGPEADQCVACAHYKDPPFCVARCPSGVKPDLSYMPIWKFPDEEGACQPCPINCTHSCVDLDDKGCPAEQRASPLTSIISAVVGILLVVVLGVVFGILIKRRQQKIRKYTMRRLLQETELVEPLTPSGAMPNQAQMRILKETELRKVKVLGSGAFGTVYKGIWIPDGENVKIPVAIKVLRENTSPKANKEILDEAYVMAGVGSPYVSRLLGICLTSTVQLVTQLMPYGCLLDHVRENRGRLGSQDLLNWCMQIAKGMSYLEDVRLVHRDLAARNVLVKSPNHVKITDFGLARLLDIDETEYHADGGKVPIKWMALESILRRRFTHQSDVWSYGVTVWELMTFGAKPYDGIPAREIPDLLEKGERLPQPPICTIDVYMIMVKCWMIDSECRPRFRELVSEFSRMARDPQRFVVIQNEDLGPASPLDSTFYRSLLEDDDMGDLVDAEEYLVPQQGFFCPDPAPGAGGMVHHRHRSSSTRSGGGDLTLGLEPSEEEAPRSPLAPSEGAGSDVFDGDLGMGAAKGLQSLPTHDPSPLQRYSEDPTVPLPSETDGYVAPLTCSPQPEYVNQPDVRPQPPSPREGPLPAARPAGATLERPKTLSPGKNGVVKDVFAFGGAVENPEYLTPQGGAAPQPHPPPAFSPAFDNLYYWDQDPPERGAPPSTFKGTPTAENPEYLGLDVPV
Metric: IC50 (nM)
Numbers only, in nM.

CS(=O)(=O)CCNCc1ccc(-c2ccc3ncnc(Nc4ccc(OCc5cccc(Br)c5)cc4)c3c2)o1 | 100
CS(=O)(=O)CCNCc1ccc(-c2ccc3ncnc(Nc4ccc(OCc5cccc(F)c5)c(C(F)(F)F)c4)c3c2)o1 [GW576484X] | 220

Give IC50 for all molecules that follow.
1. O=S(=O)(CCOCc1ccc(-c2ccc3ncnc(Nc4ccc(OCc5cccc(F)c5)c(Cl)c4)c3c2)o1)c1ccccc1 [GW615311X]
2. CS(=O)(=O)CCNCc1ccc(-c2ccc3ncnc(Nc4ccc(OCc5ccccc5)c(Cl)c4)c3c2)o1
3. [O-][S+]1CCN(Cc2ccc(-c3ccc4ncnc(Nc5ccc(OCc6cccc(F)c6)c(C(F)(F)F)c5)c4c3)o2)CC1
4. O=S(=O)(CCNCc1ccc(-c2ccc3ncnc(Nc4ccc(OCc5cccc(F)c5)c(Cl)c4)c3c2)o1)c1ccccc1
5. CCCS(=O)(=O)CCNCc1ccc(-c2ccc3ncnc(Nc4ccc(OCc5cccc(F)c5)c(Cl)c4)c3c2)o1
6. CCCN(CCS(C)(=O)=O)Cc1ccc(-c2ccc3ncnc(Nc4ccc(OCc5cccc(F)c5)c(Cl)c4)c3c2)o1
7. CS(=O)(=O)CCNCc1ccc(-c2ccc3ncnc(Nc4ccc(OCc5cccc(F)c5)cc4)c3c2)o1

a:
28
22
141
30
26
20
31

// input: 4 molecules below; output: IC50 for each
1. [O-][S+]1CCN(Cc2ccc(-c3ccc4ncnc(Nc5ccc(OCc6ccccc6)c(F)c5)c4c3)o2)CC1
2. CS(=O)(=O)CCN(CC#N)Cc1ccc(-c2ccc3ncnc(Nc4ccc(OCc5cccc(F)c5)c(Cl)c4)c3c2)o1 [GW616030X]
3. CS(=O)(=O)CCNCc1ccc(-c2ccc3ncnc(Nc4ccc(OCc5ccccc5)cc4)c3c2)o1
4. O=S(=O)(CCCCNCc1ccc(-c2ccc3ncnc(Nc4ccc(OCc5ccccc5)c(Cl)c4)c3c2)o1)c1ccccc1

a:
1: 35; 2: 22; 3: 26; 4: 38

Answer for every listed entry: what is its IC50? The entries follow.
1. CS(=O)(=O)CCN(Cc1ccccc1)Cc1ccc(-c2ccc3ncnc(Nc4ccc(OCc5cccc(F)c5)c(Cl)c4)c3c2)o1
2. [O-][S+]1CCN(Cc2ccc(-c3ccc4ncnc(Nc5ccc(OCc6cccc(F)c6)c(Cl)c5)c4c3)o2)CC1

a:
[141, 18]

* * *

- Test system: HN5
- Procedure summary: cells
- Settings: Homo sapiens, HN5, 72 h
- Description: Inhibition of HN5 cell growth after 72 hrs
Under this convention, fulfilled denotes IC50 strictly below 2000 nM and not fulfilled denotes IC50 at or above 2000 nM.

Record excerpt, results attached:
CS(=O)(=O)CCNCc1ccc(-c2ccc3ncnc(Nc4ccc(OCc5ccccc5)cc4)c3c2)o1 | fulfilled
CS(=O)(=O)CCNCc1ccc(-c2ccc3ncnc(Nc4ccc(OCc5ccccc5)c(Cl)c4)c3c2)o1 | fulfilled

q: Take the molecule CS(=O)(=O)CCNCc1ccc(-c2ccc3ncnc(Nc4ccc(OCc5ccccc5)c(C(F)(F)F)c4)c3c2)o1 and say whether its IC50 is less than 2000 nM.
a: not fulfilled

q: Determine if [O-][S+]1CCN(Cc2ccc(-c3ccc4ncnc(Nc5ccc(OCc6cccc(F)c6)c(C(F)(F)F)c5)c4c3)o2)CC1 shows IC50 strictly lower than 2000 nM.
a: fulfilled

q: Hi there! Is IC50 for [O-][S+]1CCN(Cc2ccc(-c3ccc4ncnc(Nc5ccc(OCc6ccccc6)c(Cl)c5)c4c3)o2)CC1 below 2000 nM, do you know?
a: fulfilled

q: Determine if CS(=O)(=O)CCNCc1ccc(-c2ccc3ncnc(Nc4ccc(OCc5cccc(Br)c5)cc4)c3c2)o1 shows IC50 strictly lower than 2000 nM.
a: not fulfilled

q: Threshold test, IC50 < 2000 nM: O=S(=O)(CCNCc1ccc(-c2ccc3ncnc(Nc4ccc(OCc5cccc(F)c5)c(Cl)c4)c3c2)o1)c1ccccc1
a: fulfilled
